Endpoint: IC50. System: Substance-P receptor (Homo sapiens, UniProt P25103). Items follow.
Sequence (P25103 whole entry): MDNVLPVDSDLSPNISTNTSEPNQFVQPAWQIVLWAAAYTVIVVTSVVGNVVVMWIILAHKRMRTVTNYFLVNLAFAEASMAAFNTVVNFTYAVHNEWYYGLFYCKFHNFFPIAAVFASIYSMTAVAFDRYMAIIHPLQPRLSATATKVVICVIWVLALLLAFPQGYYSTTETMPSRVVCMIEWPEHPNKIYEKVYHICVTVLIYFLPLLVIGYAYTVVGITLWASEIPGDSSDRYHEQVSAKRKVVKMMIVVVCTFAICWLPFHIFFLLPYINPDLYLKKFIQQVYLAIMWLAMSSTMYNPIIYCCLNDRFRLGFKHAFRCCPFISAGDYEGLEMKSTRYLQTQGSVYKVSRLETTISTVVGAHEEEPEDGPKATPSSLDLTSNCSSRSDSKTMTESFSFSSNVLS

{"molecule": "COc1ccc(-n2nnnc2C(F)(F)F)cc1CN[C@H]1CCN(C(=O)NC(C)C)C[C@H]1c1ccccc1 (racemic)", "IC50 [nM]": 0.081}
{"molecule": "COc1ccc(-n2nnnc2C(F)(F)F)cc1CN[C@H]1CCN(S(C)(=O)=O)C[C@H]1c1ccccc1 (racemic)", "IC50 [nM]": 0.075}
{"molecule": "COc1ccc(-n2nnnc2C(F)(F)F)cc1CN[C@H]1CCN(C(=O)C2CN(C(C)=O)C2)C[C@H]1c1ccccc1 (racemic)", "IC50 [nM]": 0.057}
{"molecule": "COc1ccc(-n2nnnc2C(F)(F)F)cc1CN[C@H]1CCN(C(=O)CCCNC(C)=O)C[C@H]1c1ccccc1 (racemic)", "IC50 [nM]": 0.025}
{"molecule": "CCNC(=O)N1CC[C@H](NCc2cc(-n3nnnc3C(F)(F)F)ccc2OC)[C@H](c2ccccc2)C1.Cl (racemic)", "IC50 [nM]": 0.039}
{"molecule": "COc1ccc(-n2nnnc2C(F)(F)F)cc1CN[C@@H]1CCN(C(=O)CNC(C)=O)C[C@H]1c1ccccc1 (racemic)", "IC50 [nM]": 0.2}
{"molecule": "COc1ccc(OC(F)(F)F)cc1CN[C@H]1CCNC[C@H]1c1ccccc1 (racemic)", "IC50 [nM]": 8.4}
{"molecule": "COC(=O)N1CC[C@H](NCc2cc(OC(F)(F)F)ccc2OC)[C@H](c2ccccc2)C1 (racemic)", "IC50 [nM]": 0.31}
{"molecule": "COc1ccc(-n2nnnc2C(F)(F)F)cc1CN[C@H]1CCN(C(=O)CCNC(C)=O)C[C@H]1c1ccccc1.Cl (racemic)", "IC50 [nM]": 0.054}
{"molecule": "COc1ccc(-n2nnnc2C(F)(F)F)cc1CN[C@H]1CCN(C(=O)CNC(C)=O)C[C@H]1c1ccccc1 (racemic)", "IC50 [nM]": 0.073}

* * *

# assay-summary: in vitro
# stated-conditions: human, liver microsomes, Stability
# Description: Metabolic stability in human liver microsomes at 1 uM
Here, each record is paired with measured microsomal CLint at 1 µM data.
result-type: microsomal CLint at 1 µM (µL/min/mg)

{"molecule": "CCNC(=O)N1CC[C@H](NCc2cc(-n3nnnc3C(F)(F)F)cc3c2OCC3)[C@H](c2ccccc2)C1 (racemic)", "value-measured": 160}
{"molecule": "COc1ccc(-n2nnnc2C(F)(F)F)cc1CN[C@H]1CCN(C(=O)C2CN(C(C)=O)C2)C[C@H]1c1ccccc1 (racemic)", "value-measured": 27}
{"molecule": "COc1ccc(-n2nnnc2C(F)(F)F)cc1CN[C@H]1CCN(C(=O)CN(C)C(C)=O)C[C@H]1c1ccccc1 (racemic)", "value-measured": 73}
{"molecule": "CCNC(=O)N1CC[C@H](NCc2cc(-n3nnnc3C(F)(F)F)ccc2OC)[C@H](c2ccccc2)C1.Cl (racemic)", "value-measured": 159}
{"molecule": "COc1ccc(-n2nnnc2C(F)(F)F)cc1CN[C@H]1CCN(C(=O)CCCNC(C)=O)C[C@H]1c1ccccc1 (racemic)", "value-measured": 146}
{"molecule": "COc1ccc(-n2nnnc2C(F)(F)F)cc1CN[C@H]1CCN(C(=O)NC(C)C)C[C@H]1c1ccccc1 (racemic)", "value-measured": 167}

* * *

# Organism: Cavia porcellus
# assay-summary: animal or person
# stated-conditions: Hartley, po, 0.75 h, read-out: INH
Quick rule: inhibition in vivo at 1 mg/kg of at least 60% means T, below that means F.

{"compound": "COc1ccc(-n2nnnc2C(F)(F)F)cc1CN[C@H]1CCN(C(=O)N(C)C)C[C@H]1c1ccccc1 (racemic)", "class-name": "T"}
{"compound": "COc1ccc(-n2nnnc2C(F)(F)F)cc1CN[C@H]1CCN(C(=O)C2CN(C(C)=O)C2)C[C@H]1c1ccccc1 (racemic)", "class-name": "F"}
{"compound": "COc1ccc(-n2nnnc2C(F)(F)F)cc1CN[C@H]1CCN(C(=O)NCC(F)(F)F)C[C@H]1c1ccccc1 (racemic)", "class-name": "T"}
{"compound": "CCNC(=O)N1CC[C@H](NCc2cc(-n3nnnc3C(F)(F)F)ccc2OC)[C@H](c2ccccc2)C1.Cl (racemic)", "class-name": "T"}
{"compound": "CCNC(=O)N1CC[C@H](NCc2cc(-n3nnnc3C(F)(F)F)ccc2OCC)[C@H](c2ccccc2)C1 (racemic)", "class-name": "F"}
{"compound": "COc1ccc(-n2nnnc2C(F)(F)F)cc1CN[C@H]1CCN(C(=O)NC(C)C)C[C@H]1c1ccccc1 (racemic)", "class-name": "T"}
{"compound": "COc1ccc(-n2nnnc2C(F)(F)F)cc1CN[C@H]1CCN(C(=O)CNC(C)=O)C[C@H]1c1ccccc1 (racemic)", "class-name": "T"}
{"compound": "COc1ccc(-n2nnnc2C(F)(F)F)cc1CN[C@H]1CCN(C(C)=O)C[C@H]1c1ccccc1.Cl (racemic)", "class-name": "T"}
{"compound": "CCNC(=O)N1CC[C@H](NCc2cc(-n3nnnc3C(F)(F)F)cc3c2OCC3)[C@H](c2ccccc2)C1 (racemic)", "class-name": "F"}
{"compound": "COC(=O)N1CC[C@H](NCc2cc(-n3nnnc3C(F)(F)F)ccc2OC)[C@H](c2ccccc2)C1 (racemic)", "class-name": "T"}
